The values you see were collected from patent US9493444B2.

Tested on: Wnt pathway (TCF-dependent transcription in HEK293 luciferase reporter cell line with ER-DSH construct)
experimentSummary: Cellular assay for Wnt pathway activity (luciferase reporter)
Format: cell-based
assayConditions: Homo sapiens; Wnt pathway inhibition, HEK293 luciferase reporter cells (ER-DSH, TCF promoter), 24 hours incubation, estrogen-induced
pIC50: −log10 of the molar value.
Measured pIC50, listed per entry for reference.

Documented pIC50 of CC(=O)N(C)CCN(C)c1cncc(Oc2ccc(F)cc2F)n1 : 6.00 to 6.70

Documented pIC50 of CC(=O)Oc1cnc(-c2ccc(Oc3cncc(N(C)CCN(C)C(C)=O)n3)cc2)nc1 : 5.00 to 6.00

* * *

Test system: Wnt pathway (TCF-dependent transcription in HEK293 luciferase reporter cell line with ER-DSH construct)
experimentSummary: Cellular assay for Wnt pathway activity (luciferase reporter)
Assay type: cell-based
assayConditions: Homo sapiens; Wnt pathway inhibition, HEK293 luciferase reporter cells (ER-DSH, TCF promoter), 24 hours incubation, estrogen-induced
propertyName: IC50

Some entries whose results are on file:
{"compound": "CC(=O)N(C)CCN(C)c1cncc(Oc2ccc(-c3ccc(N4CCOCC4)nc3)cc2F)n1 [Compound 239]", "IC50": "< 200 nM"}
{"compound": "CC(=O)N(C)CCN(C)c1cncc(Oc2ccc(-c3cc(C)cc[n+]3[O-])cc2)n1 [Compound 174]", "IC50": "200 to 1000 nM"}
{"compound": "CC(=O)N(C)CCN(C)c1cncc(Oc2ccc(O)cc2)n1 [Compound 56]", "IC50": "200 to 1000 nM"}

Documented IC50 of CC(=O)N(C)CCN(C)c1cncc(Oc2ccc(-c3ccc(C)cn3)cc2)n1 [Compound 93] : < 200 nM

Documented IC50 of CC(=O)N(C)CCN(C)c1cncc(Oc2ccc(C(=O)N3CCCC(c4cccn4C)=N3)cc2)n1 [Compound 126] : 1000 to 10000 nM

Documented IC50 of COc1ccc(-c2ccc(Oc3cncc(CCCN(C)C(C)=O)n3)cc2)nc1 [Compound 221] : 200 to 1000 nM

Documented IC50 of CC(=O)N(C)CCNc1cncc(Cc2ccc(F)cc2)n1 [Compound 322] : 1000 to 10000 nM

Documented IC50 of COc1ccc(Oc2cncc(N(C)CCN(C)C(=O)Cc3cccs3)n2)cc1 [Compound 33] : 1000 to 10000 nM

Documented IC50 of CC(=O)N(C)CCN(C)c1cncc(Oc2ccc(-c3cc4ccccc4cn3)cc2)n1 [Compound 166] : 200 to 1000 nM

Documented IC50 of CC(=O)N(C)CCNc1cncc(Oc2ccc(-c3cnc(N)cn3)cc2)n1 [Compound 241] : 1000 to 10000 nM

Documented IC50 of CC(=O)N(C)CCN(C)c1cncc(OC2CCCC2)n1 [Compound 43] : 1000 to 10000 nM

Documented IC50 of COC(=O)CCc1ccc(Oc2cncc(N(C)CCN(C)C(C)=O)n2)cc1 [Compound 141] : 1000 to 10000 nM

Documented IC50 of CNCCN(C)c1cncc(Oc2ccc(-c3cc(C(F)(F)F)ccn3)cc2)n1 [Compound 120] : 1000 to 10000 nM

* * *

Measured IC50, listed per entry for reference.
Tested on: Wnt pathway (TCF-dependent transcription in HEK293 luciferase reporter cell line with ER-DSH construct)
experimentSummary: Cellular assay for Wnt pathway activity (luciferase reporter)
Type: cell-based
assayConditions: Homo sapiens; Wnt pathway inhibition, HEK293 luciferase reporter cells (ER-DSH, TCF promoter), 24 hours incubation, estrogen-induced

Some entries whose results are on file:
{"compound": "CC(=O)N(C)CCN(C)c1cncc(Oc2ccc(-c3ccc(F)cn3)cc2)n1 [Compound 152]", "IC50": "< 200 nM"}
{"compound": "CC(=O)N(C)CCCc1cc(Oc2ccc(-c3cccc(N4CCN(C)CC4)n3)cc2)c[n+]([O-])c1 [Compound 314]", "IC50": "1000 to 10000 nM"}
{"compound": "CC(=O)N(C)CCN(C)c1cncc(Oc2ccc(-c3ccncc3C#N)cc2)n1 [Compound 144]", "IC50": "< 200 nM"}
{"compound": "CN(C=O)CCNc1cncc(Oc2ccc(-c3cccc(N4CCN(C)CC4)n3)cc2)n1 [Compound 311]", "IC50": "200 to 1000 nM"}
{"compound": "CC(=O)N(C)CCN(C)c1cncc(Oc2ccc(N3CCNCC3)cc2)n1 [Compound 149]", "IC50": "1000 to 10000 nM"}
{"compound": "CCN(CC1CCCN(c2cncc(Oc3ccc(OC)cc3)n2)C1)C(C)=O (centres unmarked) [Compound 73]", "IC50": "1000 to 10000 nM"}
{"compound": "CN(CCN(C)c1cncc(Oc2ccc(F)cc2)n1)C(=O)CN [Compound 284]", "IC50": "1000 to 10000 nM"}

Query compound follows.
Documented IC50 of CC(=O)N(C)CCN(C)c1cncc(Oc2cnc3[nH]ccc3c2)n1 [Compound 250] : 1000 to 10000 nM
